Would you mind telling me the reported Kd of each entry?
- target: WT CBL-B (36-427) (Homo sapiens)
- Construct: N-terminal biotinylated WT CBL-B (36-427) and C-CBL (46-435) were captured on a streptavidin (SA) coated sensor chip
- test.description: Surface Plasmon Resonance (SPR) assay, binding affinity and kinetics, CBL-B
- measurement.setup: SPR at 10° C., biotinylated WT CBL-B (36-427) on streptavidin chip; geometric mean; read-out: CBL-B SPR Kd (nM) GMean
- Procedure: Surface Plasmon Resonance (SPR) Assay The purpose of the SPR assay is to evaluate the binding affinity and kinetics of the compound of disclosure binding to CBL-B and C-CBL. The binding affinity and kinetics of compound binding to CBL-B and C-CBL were measured by Surface Plasmon Resonance (SPR) using either Biacore S200, 8K or 8K+ (Cytiva, Marlborough, MA) instruments. […] Compound binding kinetics were measured in either multi-cycle or single-cycle kinetic format. […]
Answers are plain numbers, in nM.

Examples from the recorded data:
>>> df
                                   compound                            target  endpoint_result
0  Cn1cnnc1CC1(c2cccc(-c3n[nH]c4c(CN5CCNCC5)nc(C(F)(F)F)cc34)c2)COC1  WT CBL-B (36-427) (Homo sapiens)                3
1  Cn1cnnc1[C@@H](c1cccc(-c2n[nH]c3c(CN4CCC(F)(F)C4)nc(C(F)(F)F)cc23)c1)C1CCC1  WT CBL-B (36-427) (Homo sapiens)             10.8

Please supply Kd for each of the following items, keeping them in order.
1. Cn1cnnc1[C@@H](c1cccc(-c2n[nH]c3c(CN[C@@H]4CC[C@H](O)C4)nc(C(F)(F)F)cc23)c1)C1CCC1
2. C[C@@H](NC1CCCC1)c1nc(C(F)(F)F)cc2c(-c3cccc(C4(Cc5nncn5C)COC4)c3)n[nH]c12 (single isomer, unassigned)
3. CNCc1nc(C(F)(F)F)cc2c(-c3cccc([C@H](c4nncn4C)C4CCC4)c3)n[nH]c12
4. Cn1cnnc1[C@@H](c1cccc(-c2n[nH]c3c(CNC4CCNC(=O)C4)nc(C(F)(F)F)cc23)c1)C1CCC1 (single isomer, unassigned) [Example C87]

# output
1.8
5.6
20.5
8.4

====

Would you mind telling me the reported Ki of each entry?
- target: C-CBL (residues 46-435) (Homo sapiens, UniProt P22681)
- Construct: Purified CBL-B (residues 36-427) and C-CBL (residues 46-435) proteins from baculovirus-infected insect cells; made in house; host or cells: baculovirus-infected insect cells
- test.description: Ligand Displacement Assay (LDA), HTRF competitive binding against BODIPY-labeled fluorescent tracer, C-CBL
- measurement.setup: geometric mean of the number of tests, read-out: C-CBL Ki (nM) GMean
One number for each entry, in nM.

                                   molecule  endpoint_result
0  Cn1cnnc1[C@@H](c1cccc(-c2n[nH]c3c(CN4C[C@@H](F)[C@@H](F)C4)nc(C(F)(F)F)cc23)c1)C1CCC1              363

Please supply Ki for each of the following items, keeping them in order.
1. C[C@H](O)CN[C@@H](C)c1nc(C(F)(F)F)cc2c(-c3cccc([C@H](c4nncn4C)C4CCC4)c3)n[nH]c12 (single isomer, unassigned)
2. CC(N[C@@H]1CCOC1)c1nc(C(F)(F)F)cc2c(-c3cccc(C4(Cc5nncn5C)COC4)c3)n[nH]c12 (single isomer, unassigned) [Example C86]

# output
[12.4, 49.4]

Source listed as patent US20260125375A1.
